# Tested on: DERL-7 (IL-2 2.5 ng/mL)
# assay: relative IC50 (inflection point of fitted viability curve, relative to fitted max inhibition); higher = less sensitive
# condition notes: 72 h
Think of 0.7 µM as a floor: if relative IC50 stands on it or above, it is Fulfilled; beneath it, Not fulfilled.

compound	target of assay	assigned label
CC(=O)O[C@H]1C(=O)[C@@]2(C)[C@H]([C@H](OC(=O)c3ccccc3)[C@]3(O)C[C@H](OC(=O)[C@H](O)[C@@H](NC(=O)c4ccccc4)c4ccccc4)C(C)=C1C3(C)C)[C@]1(OC(C)=O)CO[C@@H]1C[C@@H]2O	DERL-7 (IL-2 2.5 ng/mL)	Not fulfilled
FC(F)c1nc2ccccc2n1-c1nc(N2CCOCC2)nc(N2CCOCC2)n1	DERL-7 (IL-2 2.5 ng/mL)	Not fulfilled
O=C(Nc1ccc(-c2ccnc(Nc3ccc(N4CCOCC4)cc3)n2)cc1)C1CCCN1 (configuration not stated)	DERL-7 (IL-2 2.5 ng/mL)	Fulfilled
N#CC[C@H](C1CCCC1)n1cc(-c2ncnc3[nH]ccc23)cn1	DERL-7 (IL-2 2.5 ng/mL)	Not fulfilled
COc1cccc2cc(-c3nc([C@H]4CC[C@H](C(=O)O)CC4)n4ncnc(N)c34)[nH]c12	DERL-7 (IL-2 2.5 ng/mL)	Fulfilled
CC[C@H](Nc1ncnc2[nH]cnc12)c1nc2cccc(F)c2c(=O)n1-c1ccccc1	DERL-7 (IL-2 2.5 ng/mL)	Not fulfilled
CC(C)C[C@H](NC(=O)[C@H](Cc1ccccc1)NC(=O)c1cnccn1)B(O)O	DERL-7 (IL-2 2.5 ng/mL)	Not fulfilled

* * *

The following compounds are listed with their measured percent inhibition of viability values.
# System: YT (IL-2 2.5 ng/mL)
# assay: percent inhibition of viability; higher = more inhibition
# condition notes: 72 h; 1000 nM
measured parameter: percent inhibition of viability (%)

compound	recorded result
CNC(=O)c1ccc(N2C(=S)N(c3ccc(C#N)c(C(F)(F)F)c3)C(=O)C23CCC3)cc1F [RD162] (max concentration tested 10000 nM)	3.85
CCc1cncnc1N1CCN(Cc2nc3ccc(C(F)(F)F)cc3[nH]2)CC1 (max concentration tested 10000 nM)	11.5
O=C(Nc1cccc(C(F)(F)F)c1)Nc1cc(S(=O)(=O)NC2CC2)ccc1-c1ccsc1 [AGI-6780] (max concentration tested 10000 nM)	5.28
CCn1cc(-c2ccnc3[nH]c(-c4cccc(CN(C)C)c4)cc23)c(-c2ccc(NC(=O)N(C)C)cc2)n1 (max concentration tested 1000 nM)	39.5
O=C(Nc1cccc(Nc2ncc(Br)c(NCCc3cnc[nH]3)n2)c1)N1CCCC1 [BX-912] (max concentration tested 10000 nM)	27.9

* * *

# System: KHYG-1 (IL-2 2.5 ng/mL)
# assay: percent inhibition of viability; higher = more inhibition
# condition notes: 72 h; 1 nM

molecule	percent inhibition of viability / %
Cc1ccc(NC(=O)c2ccc(CN3CCN(C)CC3)cc2)cc1Nc1nc(-c2cccnc2)cs1 [Masitinib] (max concentration tested 10000 nM)	-4.84
CC(C)c1cc(-c2n[nH]c(=O)n2-c2ccc3c(ccn3C)c2)c(O)cc1O [Ganetespib] (max concentration tested 1000 nM)	4.41
Cn1cc(-c2ccc3nnc(C(F)(F)c4ccc5ncccc5c4)n3n2)cn1 (max concentration tested 10000 nM)	0.7
CCc1cc2c(cc1N1CCC(N3CCOCC3)CC1)C(C)(C)c1[nH]c3cc(C#N)ccc3c1C2=O [Alectinib] (max concentration tested 1000 nM)	0.6
Cc1ccccc1C(C(=O)NC1CCCCC1)N(C(=O)Cn1ccnc1C)c1cccc(F)c1 (configuration not stated) [AGI-5198] (max concentration tested 10000 nM)	2.51
O=C(Nc1cccnc1)N1CCC(Cc2cccc(Oc3ccc(C(F)(F)F)cn3)c2)CC1 [PF-3845] (max concentration tested 10000 nM)	-4.25
CCCCc1nc2cc(/C=C/C(=O)NO)ccc2n1CCN(CC)CC [Pracinostat] (max concentration tested 10000 nM)	0.14
CC1(C)CNc2cc(NC(=O)c3cccnc3NCc3ccncc3)ccc21 [Motesanib] (max concentration tested 10000 nM)	-8.69
NC(=O)N1CCC(CC(=O)N2CCC([C@H]3c4ncc(Br)cc4CCc4cc(Cl)cc(Br)c43)CC2)CC1 [Lonafarnib] (max concentration tested 10000 nM)	-3.98
CCc1cncnc1N1CCN(Cc2nc3ccc(C(F)(F)F)cc3[nH]2)CC1 (max concentration tested 10000 nM)	-4.31
CC[C@H](NC(=O)[C@H](C)NC)C(=O)N1C[C@@H](O)C[C@H]1Cc1c(-c2[nH]c3cc(F)ccc3c2C[C@@H]2C[C@H](O)CN2C(=O)[C@H](CC)NC(=O)[C@H](C)NC)[nH]c2cc(F)ccc12 [Birinapant] (max concentration tested 1000 nM)	-5.19
CC(C)(C)c1cc(NC(=O)Nc2ccc(-c3cn4c(n3)sc3cc(OCCN5CCOCC5)ccc34)cc2)no1 [Quizartinib] (max concentration tested 1000 nM)	-6.69

Origin of values: the supplement of paper PMC5908809
